- experiment.notes: Plasma concentration in RPA reaction study (satellite / exposure)
- Type: in vivo, mouse
- condition.description: C57BL/6, mouse, plasma; 1 mg/kg oral, pretreatment 0.5 hrs; read-out: Exposure = Pretreatment Time + 4 hours Plasma Concentration ± SEM
- Method: Pretreatment time, in which the test compounds are administered prior to Ab/Ag challenge, depends on the pharmacokinetic (PK) properties of each individual compound. Four hours after induction of Arthus reaction, mice are euthanized, and tissues are harvested for assessment of edema. All compounds tested were administered by the oral route.
recorded.endpoint: concentration at 4.5 h (ng/mL)
Answers are plain numbers, in ng/mL.

Challenge: # lookup: concentration at 4.5 h of COc1cc(Nc2ncc(F)c(Nc3ccc4c(n3)NC(=O)C(C)(C)O4)n2)cc(OC)c1OC
Response given: 2.3
